protein stability index reference
B1: TPD52L2 (parent)
chain: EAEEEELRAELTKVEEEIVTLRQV

Variants of: B1
Assay: protein stability index of a GFP-peptide fusion (GPS, HEK-293T) (PSI 1-6); higher = more stable;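 also: lentivirally expressed fusions sorted by FACS into six bins by GFP to DsRed ratio, PSI derived from sequencing read proportions per bin multiplied by bin number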
Details: c terminus: a fixed tail appended

Observe how each entry below is paired with its result.
Mutation Notation: T20Q
Assay Metric: protein stability index
Test Result: 4.04

Mutation Notation: Q23C
Assay Metric: protein stability index
Test Result: 3.9

Mutation Notation: V14W
Assay Metric: protein stability index
Test Result: 4.05

Mutation Notation: R22N
Assay Metric: protein stability index
Test Result: 3.9

Mutation Notation: V24W
Assay Metric: protein stability index
Test Result: 3.89

Now for the variant whose protein stability index we want.
Ask: Suppose we examine the variant `V24H` ; what protein stability index value has been reported?
Result: 3.92

// data source = the supplement of paper PMC10567573
